Biological target: Estrogen receptor beta (Homo sapiens)
Sequence (Q92731 whole entry): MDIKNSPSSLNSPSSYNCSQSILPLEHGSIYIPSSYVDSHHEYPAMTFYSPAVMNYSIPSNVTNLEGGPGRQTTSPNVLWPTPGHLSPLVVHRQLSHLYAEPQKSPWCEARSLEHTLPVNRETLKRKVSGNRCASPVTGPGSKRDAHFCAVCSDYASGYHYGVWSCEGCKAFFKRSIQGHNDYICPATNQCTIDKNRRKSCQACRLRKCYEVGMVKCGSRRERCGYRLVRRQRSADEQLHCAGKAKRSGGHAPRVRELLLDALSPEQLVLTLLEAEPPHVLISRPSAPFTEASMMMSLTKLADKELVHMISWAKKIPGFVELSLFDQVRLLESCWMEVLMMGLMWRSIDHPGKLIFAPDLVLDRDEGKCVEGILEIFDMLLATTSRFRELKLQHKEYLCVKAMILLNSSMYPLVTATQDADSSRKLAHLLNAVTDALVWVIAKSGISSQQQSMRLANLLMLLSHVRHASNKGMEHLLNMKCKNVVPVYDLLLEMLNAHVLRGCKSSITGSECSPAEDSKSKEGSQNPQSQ
Assay: ERβ–SRC-3 coactivator interaction inhibitors, confirmation, orthogonal assay, biochemical, ELISA, streptavidin-HRP readout (AID 1060)
Record form. Attribute: IC50. Fill in for each entry.

Please review the entries below; each comes with its answer.
Cc1nc2cc(C(=O)O)ccc2[nH]1    99500 nM (not active)
O=C(COC(=O)c1cccc(S(=O)(=O)N2CCc3ccccc3C2)c1)NCc1ccco1    24.2 nM (not active)
COc1cccc2cc3c(=O)n(-c4ccccc4)nc-3oc12    > 50000 nM (not active)
O=C(NCCc1ccccc1)c1ccc2nc(-c3ccco3)c(-c3ccco3)nc2c1    2590 nM (not active)

Alright, here's another compound for you.
Input line: Reported IC50 for Estrogen receptor beta (Homo sapiens), given "COc1ccc(N2Cc3cccc(C(=O)O)c3C2=O)cc1" ?
Output line: 704 nM (not active)

---

Target: Microphthalmia-associated transcription factor (Homo sapiens)
Sequence (O75030 whole entry): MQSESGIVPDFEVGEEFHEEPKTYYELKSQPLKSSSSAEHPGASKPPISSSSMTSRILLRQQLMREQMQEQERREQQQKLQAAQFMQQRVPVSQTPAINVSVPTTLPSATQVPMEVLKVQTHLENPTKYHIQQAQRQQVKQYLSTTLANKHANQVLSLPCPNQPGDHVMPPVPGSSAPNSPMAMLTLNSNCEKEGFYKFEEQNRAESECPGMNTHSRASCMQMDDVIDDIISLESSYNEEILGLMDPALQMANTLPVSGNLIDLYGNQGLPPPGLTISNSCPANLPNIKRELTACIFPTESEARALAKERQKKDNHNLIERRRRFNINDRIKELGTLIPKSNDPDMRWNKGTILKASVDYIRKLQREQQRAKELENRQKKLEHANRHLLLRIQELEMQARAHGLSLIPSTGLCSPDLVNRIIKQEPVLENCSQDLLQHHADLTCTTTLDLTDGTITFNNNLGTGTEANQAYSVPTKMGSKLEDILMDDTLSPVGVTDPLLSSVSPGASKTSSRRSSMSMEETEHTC
Experiment: TRPM1 promoter luciferase signal decrease, dose response, MITF inhibitor project, cell-based, SK-MEL-5, cherry-picked, set 3 (AID 493073);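 also: SK-MEL-5 melanoma cells with luciferase driven by the MITF target TRPM1 promoter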
Assay type: functional
Activity calls are given as the source filed them.
RECORDED ENDPOINT: AC50

Please review the entries below; each comes with its answer.
CCc1ccccc1NC(=O)CN(C)C(=O)Cn1ncc(Cl)c(Cl)c1=O    11 µM (active)
N#CC(C#N)=C1C=CC=CN1/C(=C\c1ccco1)C(=O)c1ccc(Cl)cc1    6.85 µM (active)
CCN1CCCC1CNC(=O)c1ccc2c(c1)NC(=O)/C(=C\c1ccc(C)cc1)S2 (stereo unspecified)    18.9 µM (active)
Cc1ccc(-c2c[n+](-c3ccc(SC(F)F)cc3)c3n2CCC3)cc1    1.64 µM (active)
CCOc1ccc(NC(=O)CCC(=O)N/N=C/c2ccc([N+](=O)[O-])s2)cc1    6.21 µM (active)

Input line: Query (molecule): CCCOc1ccc(C(=O)C(CN2CCCC2)c2ccccc2)cc1 (stereo unspecified) ; field requested: AC50
Output line: 8.62 µM (active)

---

Molecular target: UniProt:P07900
Assay type: functional, organism-based
Calls of active or inactive are those of the source.
Record form. Attribute: AC50. Fill in for each entry.

CCOC(=O)c1ccc(N2C(=O)CC(N(C)CCc3ccc(OC)c(OC)c3)C2=O)cc1 (stereo not drawn)    3.1 µM (active)
CCCCCCCCCCCCCCCCn1cc[n+](C)c1    3.48 µM (active)
O=C(Nc1ccccc1Cl)/C(Cl)=C(\Cl)[S+]([O-])c1ccccc1 (stereo not drawn)    < 0.195 µM (active)
CN1C(=O)C(N=Nc2ccc([N+](=O)[O-])cc2)SC1=S (stereo not drawn)    14.5 µM (active)
Cc1cccc(C)c1NC(=O)C(Cl)C(=O)c1ccccc1 (stereo not drawn)    0.855 µM (active)
Oc1ccc(O)c2c1C1(Cl)C(Cl)=C(Cl)C2(Cl)C1(Cl)Cl    8.21 µM (active)
O=C1C=CC(=O)N1N(c1ccccc1)c1ccccc1    4.16 µM (active)

Input line: Query (molecule): "CCCc1cc(NCc2ccccn2)n2nc(C)c(-c3ccccc3)c2n1" ; field requested: AC50
Output line: 1.58 µM (active)

---

Molecular target: Voltage-gated N-type calcium channel alpha-1B subunit/Amyloid beta A4 precursor protein-binding family A member 1 (Homo sapiens, UniProt Q00975+Q02410)
Sequence (Q00975 whole entry): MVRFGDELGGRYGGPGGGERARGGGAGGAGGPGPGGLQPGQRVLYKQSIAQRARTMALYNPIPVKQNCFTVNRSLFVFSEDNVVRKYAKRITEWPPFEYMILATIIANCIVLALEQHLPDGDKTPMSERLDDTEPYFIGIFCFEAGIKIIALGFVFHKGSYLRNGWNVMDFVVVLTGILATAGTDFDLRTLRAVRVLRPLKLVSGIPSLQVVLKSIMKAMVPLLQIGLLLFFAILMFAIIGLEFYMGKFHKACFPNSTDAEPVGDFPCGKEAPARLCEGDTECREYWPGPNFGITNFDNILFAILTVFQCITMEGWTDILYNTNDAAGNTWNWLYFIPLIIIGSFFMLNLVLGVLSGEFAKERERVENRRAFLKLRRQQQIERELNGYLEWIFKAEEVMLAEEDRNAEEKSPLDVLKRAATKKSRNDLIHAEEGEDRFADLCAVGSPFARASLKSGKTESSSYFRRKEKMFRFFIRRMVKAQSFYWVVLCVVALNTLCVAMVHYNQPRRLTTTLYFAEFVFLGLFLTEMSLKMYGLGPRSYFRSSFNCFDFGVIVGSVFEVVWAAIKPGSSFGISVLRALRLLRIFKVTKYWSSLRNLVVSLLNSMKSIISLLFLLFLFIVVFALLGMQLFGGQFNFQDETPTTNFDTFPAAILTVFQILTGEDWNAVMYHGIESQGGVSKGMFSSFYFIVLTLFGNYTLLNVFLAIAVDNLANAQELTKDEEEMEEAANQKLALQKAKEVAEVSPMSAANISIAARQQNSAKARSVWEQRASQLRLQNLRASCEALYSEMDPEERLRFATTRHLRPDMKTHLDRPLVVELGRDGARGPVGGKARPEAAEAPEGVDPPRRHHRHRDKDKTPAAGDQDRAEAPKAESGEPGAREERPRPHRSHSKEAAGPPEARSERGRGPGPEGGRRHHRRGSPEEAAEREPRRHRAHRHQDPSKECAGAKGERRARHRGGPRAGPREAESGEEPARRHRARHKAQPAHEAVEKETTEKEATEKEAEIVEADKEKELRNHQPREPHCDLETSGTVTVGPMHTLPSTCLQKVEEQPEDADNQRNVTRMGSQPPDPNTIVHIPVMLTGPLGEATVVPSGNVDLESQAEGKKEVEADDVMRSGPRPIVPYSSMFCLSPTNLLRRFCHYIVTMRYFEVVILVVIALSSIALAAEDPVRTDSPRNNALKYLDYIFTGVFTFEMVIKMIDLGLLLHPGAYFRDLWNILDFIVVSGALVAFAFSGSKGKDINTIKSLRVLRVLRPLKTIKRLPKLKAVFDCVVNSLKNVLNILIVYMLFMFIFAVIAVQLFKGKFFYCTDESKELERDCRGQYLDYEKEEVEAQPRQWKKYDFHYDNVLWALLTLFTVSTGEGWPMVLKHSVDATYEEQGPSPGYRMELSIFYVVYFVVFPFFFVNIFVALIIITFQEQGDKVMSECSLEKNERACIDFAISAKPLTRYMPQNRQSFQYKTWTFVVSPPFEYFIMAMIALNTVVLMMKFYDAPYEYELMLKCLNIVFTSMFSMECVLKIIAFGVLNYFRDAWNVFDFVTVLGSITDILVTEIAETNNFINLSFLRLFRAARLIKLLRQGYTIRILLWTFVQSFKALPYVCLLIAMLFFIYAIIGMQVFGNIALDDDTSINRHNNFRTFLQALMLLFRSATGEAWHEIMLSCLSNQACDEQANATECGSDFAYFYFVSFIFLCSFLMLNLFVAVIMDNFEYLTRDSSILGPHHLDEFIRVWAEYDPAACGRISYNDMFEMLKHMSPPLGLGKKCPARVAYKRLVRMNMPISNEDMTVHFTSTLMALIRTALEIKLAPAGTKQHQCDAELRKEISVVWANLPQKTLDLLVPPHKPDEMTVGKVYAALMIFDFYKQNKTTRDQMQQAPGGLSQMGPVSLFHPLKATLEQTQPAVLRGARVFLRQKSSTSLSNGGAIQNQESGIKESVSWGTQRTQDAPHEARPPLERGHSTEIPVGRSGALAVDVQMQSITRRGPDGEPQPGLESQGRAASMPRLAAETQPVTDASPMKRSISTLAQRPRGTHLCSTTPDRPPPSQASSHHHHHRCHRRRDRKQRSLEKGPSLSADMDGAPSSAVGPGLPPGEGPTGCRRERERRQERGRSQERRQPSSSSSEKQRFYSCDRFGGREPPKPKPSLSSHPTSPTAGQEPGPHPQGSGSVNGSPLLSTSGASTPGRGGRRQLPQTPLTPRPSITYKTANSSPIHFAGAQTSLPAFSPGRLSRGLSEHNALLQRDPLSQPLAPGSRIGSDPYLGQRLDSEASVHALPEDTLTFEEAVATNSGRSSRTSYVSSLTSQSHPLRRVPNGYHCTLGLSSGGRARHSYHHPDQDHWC
Sequence (Q02410 whole entry): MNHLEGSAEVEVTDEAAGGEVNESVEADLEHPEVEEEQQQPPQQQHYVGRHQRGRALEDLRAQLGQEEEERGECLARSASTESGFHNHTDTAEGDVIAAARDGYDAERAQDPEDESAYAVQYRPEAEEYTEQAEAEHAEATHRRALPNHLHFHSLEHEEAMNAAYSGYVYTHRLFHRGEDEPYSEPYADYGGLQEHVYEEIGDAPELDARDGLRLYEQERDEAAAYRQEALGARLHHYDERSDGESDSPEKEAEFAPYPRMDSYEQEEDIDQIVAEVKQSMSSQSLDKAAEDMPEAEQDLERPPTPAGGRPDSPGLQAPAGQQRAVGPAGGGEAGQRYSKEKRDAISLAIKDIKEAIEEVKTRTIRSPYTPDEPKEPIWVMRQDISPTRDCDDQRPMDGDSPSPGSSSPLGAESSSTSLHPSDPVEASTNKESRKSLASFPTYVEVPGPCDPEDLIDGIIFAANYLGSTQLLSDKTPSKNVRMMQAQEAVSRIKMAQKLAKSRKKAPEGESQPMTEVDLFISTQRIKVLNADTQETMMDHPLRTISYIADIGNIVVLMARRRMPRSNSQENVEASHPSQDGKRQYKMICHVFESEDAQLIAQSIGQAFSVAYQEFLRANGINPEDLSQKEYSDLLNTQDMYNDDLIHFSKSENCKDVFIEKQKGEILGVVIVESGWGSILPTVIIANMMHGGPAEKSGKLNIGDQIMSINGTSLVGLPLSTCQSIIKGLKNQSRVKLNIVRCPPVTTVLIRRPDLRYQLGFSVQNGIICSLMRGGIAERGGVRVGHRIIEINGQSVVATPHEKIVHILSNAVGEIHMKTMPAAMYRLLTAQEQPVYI
Type: protein assay
Active and inactive are the calls of the source.
Choose one outcome from this list and give only that: active, inactive

# example entries with known answers
Cc1cc(C)nc(/N=c2/ssnc2Cl)c1    inactive
O=C1NC(=S)N(c2ccc(F)cc2)C(=O)/C1=C/c1ccco1    active
Cc1cc(C)c2c(=O)n(CC(=O)Nc3ccc(Br)c(C)c3)sc2n1    inactive
CCc1ccc2nc(NC(=O)c3ccc4c(O)nc(CN5CCOCC5)nc4c3)sc2c1    inactive
CSc1nc(SCCO)c2sc3nc(-c4ccco4)c4c(c3c2n1)CC(C)(C)OC4    active

Input line: State the result this test recorded for "Cn1sc(=O)c2cc(S(=O)(=O)NC3CC3)ccc21" .
Output line: active

Input line: State the result this test recorded for "O=C(/C=C/c1ccc([N+](=O)[O-])cc1)N(c1ccccn1)C1CCCCC1" .
Output line: active

---

Target: Ubiquitin-conjugating enzyme E2 N (Homo sapiens);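 also: Dose-response confirmation in a TR-FRET assay detecting UBC13-driven polyubiquitin chain formation, inhibition measured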
Sequence (P61088 whole entry): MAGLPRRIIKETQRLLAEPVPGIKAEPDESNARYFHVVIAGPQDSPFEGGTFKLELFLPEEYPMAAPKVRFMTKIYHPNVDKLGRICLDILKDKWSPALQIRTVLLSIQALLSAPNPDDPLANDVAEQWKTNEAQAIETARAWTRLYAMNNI
Assay type: functional
Activity calls are given as the source filed them.
Record form. Attribute: IC50. Fill in for each entry.

Please review the entries below; each comes with its answer.
c1ccc(C[C@H]2CN=C(Nc3ccccc3)N2CCCC2CCCCC2)cc1    > 20 µM (inactive)
CN1CCN(c2ccc(N)c(N3CCN(C)CC3)c2)CC1    > 20 µM (inactive)
CNC(=O)c1ccccc1NC(=O)c1cccc(S(=O)(=O)N2CCC(C)CC2)c1    > 20 µM (inactive)
CCCCCCCCCCCCCCCCn1cc[n+](C)c1    > 20 µM (inactive)
COc1ccccc1NC(=O)CNC(=O)CC12CC3CC(CC(C3)C1)C2    > 20 µM (inactive)

Alright, here's another molecule for you.
Input line: Query (molecule): "FC(F)(F)c1cc(CO[C@@H]2CCCN[C@@H]2c2ccccc2)cc(C(F)(F)F)c1" ; field requested: IC50
Output line: > 20 µM (inactive)

---

Record form. Attribute: EC50. Fill in for each entry.
Assay: inhibitors of intracellular T. cruzi replication, confirmation, NIH3T3 host cells, beta-gal luminescence (AID 2044);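 also: intracellular parasites grown in NIH/3T3 mouse fibroblasts as host cells; luminescent beta-galactosidase reporter signal from transgenic T. cruzi replicating inside host cells; inhibitors lower the luminescence signal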
Type: functional, cell-based
Activity calls are given as the source filed them.

Please review the entries below; each comes with its answer.
C/C(=N\NC(=S)Nc1ccccc1C)c1cc2ccccc2o1    2.18 µM (active)
CC(C)(C)n1nnnc1C(c1cccnc1)N1CCN(c2ccccc2)CC1 (stereo not given)    0.666 µM (active)
N#C/C(=C/c1ccc(N2CCCCC2)o1)c1cccc(F)c1    3.55 µM (active)
Cc1c(C(=O)NCC2COc3ccccc3O2)oc2ccc(S(=O)(=O)N(C)C3CCCCC3)cc12 (stereo not given)    1.89 µM (active)
O=C(Nc1ccccc1N1CCN(C(=O)c2ccc(Cl)cc2)CC1)c1ccc(Br)cc1    1.29 µM (active)

I'm hoping you can list EC50 for every molecule here, please.
1. COc1ccccc1CN1CCCC(CNC(=O)c2cccc3ccccc23)C1 (stereo not given)
2. CCOc1ccc(C(=O)NC(=S)Nc2ccccc2N2CCC(C)CC2)cc1[N+](=O)[O-]
3. O=C(Nc1cnn(C23CC4CC(CC(C4)C2)C3)c1)c1cc(-c2ccccc2)on1

Output line:
["0.679 µM (active)", "1.32 µM (active)", "1.55 µM (active)"]

I'm hoping you can list EC50 for every molecule here, please.
1. Cc1ccc(S(=O)(=O)c2nnn3c2nc(N2CCCCC2)c2ccccc23)cc1
2. Cc1nc(N2CCN(Cc3ccccc3)CC2)nc2c1C(=O)CC(C)C2 (stereo not given)

Output line:
1. 1.14 µM (active)
2. 1.42 µM (active)

---

Target: Protein skinhead-1 (Caenorhabditis elegans)
Sequence (P34707 whole entry): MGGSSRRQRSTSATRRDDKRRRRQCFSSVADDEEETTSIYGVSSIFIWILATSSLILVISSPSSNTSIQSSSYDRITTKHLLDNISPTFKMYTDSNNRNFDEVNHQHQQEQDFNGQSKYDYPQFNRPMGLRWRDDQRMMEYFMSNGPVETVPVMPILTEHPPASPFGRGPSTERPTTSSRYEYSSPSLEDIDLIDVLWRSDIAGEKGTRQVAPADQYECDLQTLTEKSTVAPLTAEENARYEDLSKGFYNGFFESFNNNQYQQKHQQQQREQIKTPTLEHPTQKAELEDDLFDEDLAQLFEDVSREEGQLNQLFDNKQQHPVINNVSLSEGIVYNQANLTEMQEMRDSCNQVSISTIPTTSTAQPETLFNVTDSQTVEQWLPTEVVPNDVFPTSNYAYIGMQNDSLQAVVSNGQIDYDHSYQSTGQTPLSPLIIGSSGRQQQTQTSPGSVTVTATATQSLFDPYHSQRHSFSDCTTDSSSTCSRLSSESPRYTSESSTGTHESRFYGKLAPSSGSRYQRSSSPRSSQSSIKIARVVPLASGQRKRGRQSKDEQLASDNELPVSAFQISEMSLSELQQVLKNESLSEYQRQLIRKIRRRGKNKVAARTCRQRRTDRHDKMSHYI
Format: functional
The source made the active and inactive calls.
Choose one outcome from this list and give only that: active, inactive

# example entries with known answers
O=S(=O)(c1cccc2c(S(=O)(=O)N3CCCC3)cccc12)N1CCCC1    inactive
CCOC(=O)c1c(C)[nH]c(C(=O)COC(=O)c2oc3ccc(OC)cc3c2C)c1C    inactive
COc1ccc2oc(C(F)(F)C(F)F)cc(=O)c2c1    inactive
COC(=O)C1=C(C)N=c2s/c(=C/c3cccs3)c(=O)n2C1c1ccc(F)cc1 (stereo unspecified)    inactive
Cc1ccc(C)c(S(=O)(=O)/N=C2\C=C(NS(=O)(=O)c3ccccc3)C(=O)c3ccccc32)c1    inactive

Input line: State the result this test recorded for "COc1ccc2nc(SCC(=O)Nc3ccc(S(=O)(=O)N4CCCC4)cc3)c(C#N)cc2c1" .
Output line: inactive

Input line: State the result this test recorded for COc1ccc([N+](=O)[O-])cc1NC(=O)C(C)OC(=O)CSC(C)C(=O)Nc1cc(C)on1 (stereo unspecified) .
Output line: inactive

Input line: State the result this test recorded for "O=C(/N=C1/N=C2C=CC(Br)=CN2Cc2ccccc21)c1ccc([N+](=O)[O-])cc1[N+](=O)[O-]" .
Output line: active

Input line: State the result this test recorded for "CCOC(=O)Nc1nc(-c2ccc(Cl)cc2Cl)cs1" .
Output line: active

Input line: State the result this test recorded for "N#Cc1ccc(-c2nc3c4ccccc4ccn3c2Cc2ccccc2C(F)(F)F)cc1" .
Output line: inactive

Input line: State the result this test recorded for "ClCCN(CCCl)c1ccc(C=Cc2ccncn2)cc1" .
Output line: inactive
